- Tested on: KM12 colon
- experiment.notes: NCI-60 one-dose screen, 48 h
- recorded.conditions: 10 µM unless noted
Compounds without any hit were thinned out: in the full panel of roughly 83,000, 20% have a hit. Active and inactive are the calls of the source. How the source made its calls: active means growth percent below 10; inactive means the rest.
# valid calls are active, inactive; nothing else

Below are worked cases with known answers.
{"columns": ["compound", "group.label"],
 "data": [
  ["COc1ccc(-n2nc(C)c3c(Nc4ccc(NC(=O)Nc5c(Cl)cccc5Cl)cc4)ncnc32)cc1", "inactive"],
  ["Nc1n[nH]c2ccc([C@@H]3Nc4cc5c(cc4[C@H]4C6CCC(C6)[C@@H]34)C(=O)NC5)cc12 (stereo partly drawn)", "active"],
  ["COc1ccc(CCNc2nc(SC)nc(-c3cccc([N+](=O)[O-])c3)c2C#N)cc1OC", "inactive"],
  ["CN(C)CCCNc1c2ccccc2nc2ccccc12", "inactive"],
  ["C/C1=C\\CC[C@@]2(C)O[C@H]2[C@H]2OC(=O)C(CN3CCN(CC4C(=O)O[C@H]5[C@H]4CC/C(C)=C/CC[C@@]4(C)O[C@@H]54)CC3)[C@@H]2CC1 (stereo partly drawn)", "inactive"],
  ["C=C1c2nc3ccccc3n2C=C(c2ccc(OC)cc2)N1Cc1ccccc1", "inactive"]
]}

query: # outcome recorded in this test, key = `COc1ccc(/C=C/C(=O)c2ccc(O)c(CN3CCN(c4cc5c(cc4F)c(=O)c(C(=O)O)cn5C4CC4)CC3)c2)cc1`
result: inactive

----------
- Test system: HCT-15 colon
- experiment.notes: NCI-60 one-dose screen, 48 h
- recorded.conditions: 10 µM unless noted
About 83,000 compounds went through this panel and 20% of them were active in at least one assay; those are over-represented in the sample as a whole. Active and inactive are the calls of the source. The calls were made as follows: active = growth percent below 10; inactive = the rest.
# valid calls are active, inactive; nothing else

Below are worked cases with known answers.
{"columns": ["compound", "system.name", "group.label"],
 "data": [
  ["O=C(NCCN1CCOCC1)Nc1ccc(-c2cc3c(Nc4ccc(Oc5cccc(C(F)(F)F)c5)c(Cl)c4)ncnc3s2)cc1", "HCT-15 colon", "active"],
  ["CCCOc1ccc2nc(NC(=O)OC)[nH]c2c1", "HCT-15 colon", "inactive"],
  ["O=C1/C(=C/c2ccccc2O)N=C2SCCCN12", "HCT-15 colon", "inactive"],
  ["CCCCn1c(-c2ccc(C(=O)O/N=C(\\N)c3ccc4ccccc4c3)cc2)nc(-c2ccccc2)c1-c1ccccc1", "HCT-15 colon", "inactive"],
  ["CCC#CC[C@H](O)C/C=C1/C(=O)C=C[C@@H]1C/C=C\\CCCC(=O)OC", "HCT-15 colon", "active"],
  ["CC(=O)Nc1ccc(S(=O)(=O)Nc2cccc(-c3nc(-c4ccc(NC(=O)c5cccnc5)cc4Cl)no3)c2)cc1", "HCT-15 colon", "inactive"],
  ["COc1ccc(C2Nc3c(c(C(C)(C)C)nn3-c3ccccc3)C(=O)CS2)cc1 (stereo not given)", "HCT-15 colon", "inactive"],
  ["COc1ccc(C(=O)COc2cccc(/C=C3\\CSc4ccccc4C3=O)c2)cc1", "HCT-15 colon", "active"],
  ["O=C(O)COc1ccc(Cl)cc1C1CCCCC1", "HCT-15 colon", "inactive"]
]}

query: # outcome recorded in this test, key = `COc1cc(-c2nn(-c3ccc(Br)cc3)cc2C(=O)O)ccc1O`
result: inactive

----------
- Test system: MALME-3M melanoma
- experiment.notes: NCI-60 one-dose screen, 48 h
- recorded.conditions: 10 µM unless noted
This is part of a sample that, as a whole, favours compounds with a hit. Of some 83,000 tested, about 20% had one in any assay. Activity calls are given as the source filed them. Rule for the calls: active = growth percent below 10; inactive = the rest.
# valid calls are active, inactive; nothing else

Below are worked cases with known answers.
{"columns": ["compound", "group.label"],
 "data": [
  ["O=[N+]([O-])c1cnc(N2CCN(CC3CC3)CC2)nc1N1CCN(CC2CC2)CC1", "inactive"],
  ["Cc1cc(C)nc(SC2=C(Nc3cc(Cl)ccc3O)C(=O)N(Cc3ccccc3)C2=O)n1", "active"],
  ["c1csc(C2=NN3C(C2)c2ccccc2OC3c2ccncc2)c1 (stereo not drawn)", "inactive"]
]}

query: # outcome recorded in this test, key = Nc1n[nH]c2cc(F)c([C@@H]3Nc4ccc5[nH]ncc5c4[C@H]4C5CCC(C5)[C@@H]34)cc12 (stereo partly drawn)
result: inactive

query: # outcome recorded in this test, key = `CCOC(=O)c1cc(C(=O)c2ccc(O)c(O)c2)n2ccc(-c3ccn4c(C(=O)c5ccc(O)c(O)c5)cc(C(=O)OCC)c4c3)cc12`
result: inactive

query: # outcome recorded in this test, key = `COc1ccc(-n2nc(C)c3c(Nc4ccc(NC(=O)Nc5c(Cl)cccc5Cl)cc4)ncnc32)cc1`
result: inactive

----------
- Tested on: HCT-116 colon
- experiment.notes: NCI-60 one-dose screen, 48 h (100 = growth as untreated, 0 = no growth, -100 = all killed)
- recorded.conditions: 10 µM unless noted
This is part of a sample that, as a whole, favours compounds with a hit. Of some 83,000 tested, about 20% had one in any assay. The source made the active and inactive calls. Rule for the calls: active = growth percent below 10; inactive = the rest.
Recorded growth for the following compounds

Known growth results, listed for orientation:
{"columns": ["line.notation", "growth"],
 "data": [
  ["CN1CCN(CCCOc2cccc3nc(Nc4ccc(Cl)c(F)c4)ccc23)CC1", "31.6% (inactive)"],
  ["COc1ccc(/C=C2\\Oc3cc(OCCCCN4CCCC4)ccc3C2=O)cc1", "5.32% (active)"],
  ["CSc1nc(-c2cccc(NC(=O)CCl)c2)c(C#N)c(=O)n1C", "7.55% (active)"],
  ["CN1CCN(c2nc(NCCCNc3ccnc4cc(Cl)ccc34)c3ccccc3n2)CC1", "37.3% (inactive)"],
  ["CN(C)CCCNc1c2ccccc2nc2ccccc12", "99% (inactive)"]
]}

query: Can you look up the measured growth of `O=C1/C(=C/c2cn(-c3ccccc3)nc2-c2ccccc2)SC(=S)N1CCc1ccccc1` for me?
result: 102% (inactive)

query: Can you look up the measured growth of `COc1ccc(-c2nc3ccc(-c4nc5ccc(N6CCN(C)CC6)cc5[nH]4)cc3[nH]2)cc1OC` for me?
result: 23.5% (inactive)

query: Can you look up the measured growth of `C=CC(=O)Nc1cccc(-c2nc(SC)nc(Nc3ccccc3OC)c2C#N)c1` for me?
result: 2.91% (active)

query: Can you look up the measured growth of `COc1ccccc1Nc1nc(-c2cc3cccc(C(F)(F)F)c3oc2=O)cs1` for me?
result: 2.41% (active)

query: Can you look up the measured growth of `Cc1nn(-c2cc(=O)[nH]c3ccccc23)c(N)c1C#N` for me?
result: 107% (inactive)

query: Can you look up the measured growth of `Cc1cc(N[C@@H]2CCC[C@H](Nc3ccnc4cc(Cl)ccc34)C2)nc(N2CCCCCC2)n1` for me?
result: -88.6% (active)

----------
- System: EKVX NSCLC
- experiment.notes: NCI-60 one-dose screen, 48 h (100 = growth as untreated, 0 = no growth, -100 = all killed)
- recorded.conditions: 10 µM unless noted
This is part of a sample that, as a whole, favours compounds with a hit. Of some 83,000 tested, about 20% had one in any assay.
// returns false (0) unless growth is strictly below 50%, in which case true (1)

Below are worked cases with known answers.
{"columns": ["compound", "system.name", "group.label"],
 "data": [
  ["NC(CSC(c1ccccc1)(c1ccccc1)c1ccc(Cl)cc1)C(=O)O (stereo not given)", "EKVX NSCLC", "true (1)"],
  ["O=C(N/N=C/c1ccccc1O)c1ccccc1Nc1ccnc(C(F)(F)F)c1", "EKVX NSCLC", "true (1)"]
]}

query: Hello, I'm reviewing records and need to know if growth of COc1cccc(C2=NN3C(C2)c2cc(Br)cc(OC)c2OC32CCN(Cc3ccccc3)CC2)c1 (stereo not given) is below 50%. Could you check?
result: false (0)

query: Hello, I'm reviewing records and need to know if growth of `O=C1/C(=C/c2ccc(OCCCOc3ccc(Cl)cc3)cc2)N=C2SCCCN12` is below 50%. Could you check?
result: true (1)

query: Hello, I'm reviewing records and need to know if growth of `O=C(CN1CCCCC1)Nc1ccc2oc(=O)ccc2c1` is below 50%. Could you check?
result: false (0)

----------
- Test system: CCRF-CEM leukemia
- experiment.notes: NCI-60 one-dose screen, 48 h (100 = growth as untreated, 0 = no growth, -100 = all killed)
- recorded.conditions: 10 µM unless noted
About 83,000 compounds went through this panel and 20% of them were active in at least one assay; those are over-represented in the sample as a whole.
Grouping key: growth. Bins: A = under 20%, B = from 20% up to 60%, C = 60% and over

{"columns": ["compound", "group.label"],
 "data": [
  ["COc1ccc(-c2nn(-c3ccc(Cl)cc3)cc2-c2nc3ccccc3[nH]2)cc1", "C"]
]}

We next turn to a different compound, shown below.
query: Input `FC(F)(F)Oc1ccc2nc3nc4ccc[nH]c4cc3c2c1` ; output its category
result: C
